Assay: qHTS assay for small molecule disruptors of the mitochondrial membrane potential - cell viability (AID 720634); note: nearly all actives have a fitted effect of over 20% in size
Conditions: HepG2 viability, ATP luminescence (CellTiter-Glo), 1 h; series mostly up to 83.2 µM
Results filed as inconclusive are left out. Active and inactive are the calls of the source. Calls come from the whole dose curve. Positions of bridges follow the written chain, without caps; N, C: chain ends. Non-standard residues stand in square brackets, D forms with d. Residues, ends and D or L forms follow the SMILES beside them. *: point of attachment. X1 = CC[C@@H](C)[C@@H](N)C1=N[C@H](C(=O)*)CS1; d(aIle) = CC[C@H](C)[C@@H](N)C(=O)O; dOrn = NCCC[C@@H](N)C(=O)O
I would appreciate it if you answered using one of these outcomes: y (active), n (inactive)

## Input Recorded test outcome, item NC(=O)c1cc[n+](CC2=C(C(=O)O)N3C(=O)[C@@H](NC(=O)C(c4ccccc4)S(=O)(=O)[O-])[C@H]3SC2)cc1 (some centres not stated)
## Output n

## Input What outcome does the record of this test show for CC(C)[C@H](NC(=O)[C@H](CC(=O)O)NC(=O)[C@H](CCCCN)NC(=O)[C@@H](N)CCCN=C(N)N)C(=O)N[C@@H](Cc1ccc(O)cc1)C(=O)O (H-RKDVY-OH) ?
## Output n

## Input Tell me the recorded outcome of this test for `CC(=O)[C@]1(O)Cc2c(O)c3c(c(O)c2[C@@H](O[C@H]2C[C@H](N)[C@H](O)[C@H](C)O2)C1)C(=O)c1ccccc1C3=O` .
## Output n

## Input Hello, I am checking results. What call was entered for CO/N=C(\C(=O)N[C@@H]1C(=O)N2C(C(=O)O)=C(COC(C)=O)CS[C@H]12)c1csc(N)n1 (stereo in doubt) ?
## Output n

## Input Field: outcome | Entry: COC(=O)C[C@](O)(CCCC(C)(C)O)C(=O)O[C@@H]1C(OC)=CC23CCCN2CCc2cc4c(cc2[C@H]13)OCO4 (some centres not stated)
## Output n

## Input Look up the recorded call for `CCCCCCCCCC[N+](C)(CCCCCCCCCC)CCC[Si](OC)(OC)OC` in this test.
## Output y

## Input Please indicate how the test categorized `Cc1ccc(C(C)(C)c2ccc(C)cc2)cc1` .
## Output n

## Input Assay outcome for `O=C1c2ccccc2CN2C(=O)c3ccccc3CN12` : what was it?
## Output n

## Input Identify the outcome logged in this assay for the molecule shown: `N[C@@H](Cc1ccc(O)c(O)c1)C(=O)O`
## Output n

## Input Check the results log: what was the call for `O=C(O)COc1ccccc1/C=N/NC(=O)c1ccncc1` ?
## Output n

## Input Please state the recorded outcome for this molecule: `CN[C@H]1CC[C@@H](c2ccc(Cl)c(Cl)c2)c2ccc(S(N)(=O)=O)cc21`
## Output n

## Input Check the results log: what was the call for `CCSCC` ?
## Output n

## Input Tell me the recorded outcome of this test for `CC(=O)OCC(=O)[C@@]1(O)CC[C@H]2[C@@H]3C[C@H](C)C4=CC(=O)C=C[C@]4(C)[C@H]3[C@@H](O)C[C@@]21C` .
## Output n

## Input Could you check what this test reported for CC[C@@H](C)[C@@H](N)C1=N[C@H](C(=O)N[C@@H](CC(C)C)C(=O)N[C@@H](CCC(=O)O)C(=O)N[C@@H](C(=O)N[C@@H]2CCCCNC(=O)[C@@H](CC(N)=O)NC(=O)[C@@H](CC(=O)O)NC(=O)[C@@H](Cc3cnc[nH]3)NC(=O)[C@@H](Cc3ccccc3)NC(=O)[C@@H]([C@H](C)CC)NC(=O)[C@@H](CCCN)NC2=O)[C@@H](C)CC)CS1 (X1-LE[d(aIle)][dK][dOrn][dI][dF][dH][dD][dN]; lactam 4-C) ?
## Output n

## Input I'd appreciate the recorded outcome for `COc1ccc(/C=C/C(=O)O)cc1` from this test.
## Output n

## Input State the result this test recorded for `CCOc1ccc(NC(=S)Nc2ccc(OCC)cc2)cc1` .
## Output n

## Input What outcome does the record of this test show for `O=C1C2CC3CC1CC(O)(C3)C2` ?
## Output n

## Input Assay outcome for `COc1cc2c(cc1O)CCN[C@]21CS[C@@H]2c3c(OC(C)=O)c(C)c4c(c3[C@H](COC1=O)N1[C@@H]2[C@H]2c3c(cc(C)c(OC)c3O)C[C@@H]([C@@H]1O)N2C)OCO4` : what was it?
## Output n

## Input In this assay, the call recorded for `CC[C@H]1OC(=O)C[C@@H](O)[C@H](C)[C@@H](O[C@@H]2O[C@H](C)[C@@H](O[C@H]3C[C@@](C)(O)[C@@H](O)[C@H](C)O3)[C@H](N(C)C)[C@H]2O)[C@@H](CC=O)C[C@@H](C)C(=O)/C=C/C(C)=C/[C@@H]1CO[C@@H]1O[C@H](C)[C@@H](O)[C@@H](OC)[C@H]1OC` was what?
## Output n

## Input // param item: `O=C1CCCCCCCCCCCCCC1` ; yields the recorded call
## Output n

## Input Please share the test call associated with `FC(F)(F)COCC(F)(F)F` .
## Output n

## Input What did this assay record as the result for `COc1cccc(-c2ccc(/C=C\CN3CCCCCC3)cc2Cl)c1` ?
## Output n

## Input How was `O=C(O)Cc1nn(Cc2ccc(Br)cc2F)c(=O)c2ccccc12` classified in this test?
## Output n

## Input Identify the outcome logged in this assay for the molecule shown: `CO/N=C(\C(=O)N[C@@H]1C(=O)N2C(C(=O)[O-])=C(C[n+]3cccc4c3CCC4)CS[C@H]12)c1csc(N)n1`
## Output n

## Input For CC[N+](CC)(CC)CCC(O)(c1ccccc1)C1CCCCC1 (configuration not stated) , what call appears in the results of this test?
## Output n

## Input Hi, sorry to bother you, what did the test record for `N#Cc1c(N(CC(=O)O)CC(=O)O)sc(C(=O)O)c1CC(=O)O` ?
## Output n

## Input Tell me the recorded outcome of this test for CCCC(CCC)C(=O)OC1C[C@H]2CC[C@@H](C1)[N+]2(C)C (some centres not stated) .
## Output n

## Input Which outcome was entered for the molecule `CN[C@@H]1[C@@H](O[C@H]2O[C@H](CO)[C@@H](N)[C@H](O)[C@H]2O)O[C@H]2C[C@@H](N)[C@@H](O[C@H]3[C@H](O)[C@@H](O)[C@H](N)C[C@@H]3N)O[C@@H]2[C@@H]1O` in this test?
## Output n

## Input Each molecule tested received a call. Report the one for `CC(=O)NC[C@H]1CN(c2ccc(N3CCOCC3)c(F)c2)C(=O)O1` .
## Output n

## Input Field: outcome | Entry: `CC(=O)O[C@H]1C[C@@H]2CC[C@@H]3[C@H](CC[C@@]4(C)[C@H]3C[C@H]([N+]3(C)CCCCC3)[C@@H]4OC(C)=O)[C@@]2(C)C[C@@H]1[N+]1(C)CCCCC1`
## Output n

## Input Any idea what this test logged for `CC(=O)N[C@@H](C=O)[C@H](O)[C@H](O)[C@@H](O)CO` ?
## Output n

## Input Name the outcome recorded for `N=C(N)n1cccn1` in the assay.
## Output n

---

Assay: qHTS assay to test for compound auto fluorescence at 535 nm (green) in HEK293 cell free culture (AID 720682)
Conditions: cell-free medium, green autofluorescence 485/535 nm; series mostly up to 46 µM
Active and inactive are the calls of the source. Calls follow the shape of the dose curve; as a rule, active = well fitted curve in the direction sought with a large enough effect in the repeat runs; inconclusive = weak or mixed curves; inactive = flat fitted curve, though single readings scatter.
parameter: outcome

Please review the entries below; each comes with its answer.
[
  {
    "smiles-entry": "CC1=C(/C=C/C(C)=C/C=C/C(C)=C\\C(=O)O)C(C)(C)CCC1",
    "parameter": "outcome",
    "test-value": "inactive"
  },
  {
    "smiles-entry": "O=C(O)c1cc2cc(Cc3cccnc3)ccc2o1",
    "parameter": "outcome",
    "test-value": "inactive"
  },
  {
    "smiles-entry": "CO/N=C(\\C(=O)N[C@@H]1C(=O)N2C(C(=O)O)=C(CSc3nc(C)c(CC(=O)O)s3)CS[C@H]12)c1csc(N)n1",
    "parameter": "outcome",
    "test-value": "inactive"
  },
  {
    "smiles-entry": "Cc1onc(-c2c(F)cccc2Cl)c1C(=O)N[C@@H]1C(=O)N2[C@@H]1SC(C)(C)[C@@H]2C(=O)O",
    "parameter": "outcome",
    "test-value": "inactive"
  }
]

For the next question, use this compound.
## Input Consider the compound `CN(C)CCc1c[nH]c2ccc(Cn3cncn3)cc12` and give its measured outcome.
## Output inactive

---

Experiment: qHTS RealTime-Glo MT Cell Viability Assay in HepG2 cells - 32 hour (AID 1224877); note: nearly all actives have a fitted effect of over 55% in size
Conditions: RealTime-Glo luminescence; series mostly up to 76.8 µM
Records with an inconclusive call do not appear. The source made the active and inactive calls. The call rests on the fitted dose curve; in most records, active means well fitted cell-killing curve with a large enough effect in the repeat runs; inconclusive means weak or mixed curves; inactive means flat fitted curve, though single readings scatter.
Could you please pick one outcome from this set? active, inactive

## Input What is the recorded call for this compound in the test? `C=C(C)CCO`
## Output inactive

## Input What was the test verdict on `CCN(CCC#N)c1ccc(N=Nc2ccc([N+](=O)[O-])cc2)cc1` ?
## Output inactive

## Input For `CCC(=O)OC/C=C(\C)CCC=C(C)C` , what call appears in the results of this test?
## Output inactive

## Input Which outcome was assigned to `CC/C=C(\C)C=O` in this test?
## Output inactive

## Input Returns: the outcome recorded for `CC(=O)CC(N)=O` in this assay.
## Output inactive

## Input # lookup: test call for `C/C(=C\c1ccc(C(=O)O)cc1)c1ccc2c(c1)C(C)(C)CCC2(C)C`
## Output inactive

## Input Dear colleague, could you share the recorded outcome for CC(Cc1ccc(O)c(O)c1)C(C)Cc1ccc(O)c(O)c1 (stereo not drawn) when you have a moment?
## Output active

## Input Name the outcome recorded for `C[C@H]1O[C@@H](O[C@H]2CC[C@@]3(C)[C@H](CC[C@@H]4[C@@H]3C[C@@H](O)[C@]3(C)[C@@H](C5=CC(=O)OC5)CC[C@]43O)C2)C[C@H](O)[C@@H]1O[C@H]1C[C@H](O)[C@H](O[C@H]2C[C@H](O)[C@H](O[C@@H]3O[C@H](CO)[C@@H](O)[C@H](O)[C@H]3O)[C@@H](C)O2)[C@@H](C)O1` in the assay.
## Output inactive

## Input Per the records of this test, what outcome belongs to CCc1cccc(C)c1N(C(=O)C(=O)O)C(C)COC (stereo not drawn) ?
## Output inactive

## Input Record request — test call for `Oc1ccc(C2(c3ccc(O)c(C4CCCCC4)c3)CCCCC2)cc1C1CCCCC1`
## Output active

## Input I would be grateful if you could indicate the recorded call for `Cc1cc(F)ccc1-c1cc(N2CC[C@@H](O)[C@H]2CO)ncc1N(C)C(=O)C(C)(C)c1cc(C(F)(F)F)cc(C(F)(F)F)c1` .
## Output active

## Input Hello, I am checking results. What call was entered for `Oc1cccc2c(O)cccc12` ?
## Output inactive

## Input Would you mind telling me which call this test gave `CCOC(=O)[C@H](O)[C@@H](O)C(=O)OCC` ?
## Output inactive

## Input Which result was noted for this compound in the test: `CCCCCCCCCC[N+](C)(CCCCCCCCCC)CCC[Si](OC)(OC)OC`
## Output active

## Input Please state the recorded outcome for this compound: c1ccc(-c2ccc(C(c3ccccc3)n3ccnc3)cc2)cc1 (stereo not drawn)
## Output inactive

## Input Kindly provide the recorded test outcome for the following compound: `CCN(CC)c1ccc2c(c1)Oc1cc(N(CC)CC)ccc1C21OC(=O)c2ccccc21`
## Output inactive

## Input Please indicate how the test categorized `O[Si](c1ccccc1)(c1ccccc1)c1ccccc1` .
## Output inactive

## Input Outcome logged for `N#CCCOCCC#N` in this assay:
## Output inactive

## Input For CC(C)(C)c1ccc(OC2CCCCC2O)cc1 (stereo not drawn) , what call appears in the results of this test?
## Output inactive

## Input Tell me the recorded outcome of this test for `Clc1cccc(Cl)n1` .
## Output inactive

## Input What did the test return for `O=C(c1ccccc1)c1ccc(Cl)cc1` ?
## Output inactive

## Input Which outcome was entered for the compound `[Cl][Sc]([Cl])[Cl]` in this test?
## Output inactive

## Input Name the outcome recorded for `Cc1ccc2n[nH]nc2c1` in the assay.
## Output inactive
